- experiment_summary: A CellTox Green Cytotoxicity Assay to monitor cytotoxicity in HepG2 cells - 16 hour (AID 1224876); further: on the % scale 0 is the no-effect control and ±100 the full control effect; nearly all actives have a fitted effect of over 45% in size
- experimental_setup: CellTox Green fluorescence; series mostly up to 76.8 µM
Records with an inconclusive call do not appear. The source made the active and inactive calls. The call rests on the fitted dose curve; in most records, active means well fitted activation curve with a large enough effect in the repeat runs; inconclusive means weak or mixed curves; inactive means flat fitted curve, though single readings scatter.
observable: cytotoxicity increase

>>> result("CCCCCC(CC)OC(=O)CCCOc1ccc(Cl)cc1Cl (configuration not stated)")
"inactive"
>>> result("O=C(CCBr)N1CCN(C(=O)CCBr)CC1")
"inactive"
>>> result("CO/N=C(\\C(=O)O)c1csc(NC(=O)CCl)n1")
"inactive"
>>> result("CC(C)(C)C(=O)NCCCC(=O)O")
"inactive"
>>> result("Cc1cccc(N)n1")
"inactive"
>>> result("N#Cc1cc(NC(=O)C(=O)O)c(Cl)c(NC(=O)C(=O)O)c1")
"inactive"
>>> result("CC(C)(C)OC=O")
"inactive"
>>> result("CC(C)(C)OC(=O)c1ccccc1C(=O)O")
"inactive"
>>> result("CCN1CCN(C(=O)N[C@@H](C(=O)N[C@@H]2C(=O)N3[C@@H]2SC(C)(C)[C@H]3C(=O)O)c2ccccc2)C(=O)C1=O")
"inactive"
>>> result("CN(C)c1cc(NC(=O)CNC(C)(C)C)c(O)c2c1C[C@H]1C[C@H]3[C@H](N(C)C)C(=O)C(C(N)=O)=C(O)[C@@]3(O)C(=O)C1=C2O")
"inactive"
>>> result("Cc1ccc(N)nc1")
"inactive"
>>> result("C=CCCCCCCCCCCCCCC")
"2.79% [at 15.8 µM] (inactive)"

Reference source for all entries: PubChem BioAssay (Tox21)
